# Test system: Candida albicans
# test.details: In vitro minimum potentiation concentration to achieve an 8-fold reduction in fluconazole MIC against Candida albicans strain YEM15 (overexpressing both CDR1 and CDR2)
# Type: functional
quantity.kind: MPC8 (µg/mL)
State the answer as a number, implicitly in µg/mL.

Determine its reported MPC8: COc1ccc(N(C(=O)Nc2ccccc2)C(C)c2nc3ccccc3c(=O)n2N2CCN(C)CC2)c(OC)c1 (centres undefined)
16

Determine its reported MPC8: COc1ccc(N(C(=O)Nc2ccc(C)cc2)C(C)c2nc3ccccc3c(=O)n2N2CCN(C)CC2)c(OC)c1 (centres undefined)
16

====

# Tested on: Candida albicans
# test.details: In vitro minimum potentiation concentration to achieve an 8-fold reduction in fluconazole MIC against Candida albicans strain YEM15 (overexpressing both CDR1 and CDR2)
# Assay type: functional
quantity.kind: MPC8 (µg/mL)
State the answer as a number, implicitly in µg/mL.

COc1cccc(N(C(=O)Nc2ccc(F)cc2)C(C)c2nc3ccccc3c(=O)n2N2CCN(C)CC2)c1 (stereo unspecified) | 16
COc1ccc(N(C(=O)Nc2ccc(F)cc2)[C@@H](C)c2nc3cc(F)ccc3c(=O)n2N2CCN(C)CC2)c(OC)c1 | 0.25
COc1ccc(N(C(=O)Nc2ccc(F)cc2)C(C)c2nc3ccc(C)cc3c(=O)n2N2CCN(C)CC2)c(OC)c1 (stereo unspecified) | 0.5
Cc1ccc(N(C(=O)Nc2ccc(F)cc2)C(C)c2nc3ccccc3c(=O)n2N2CCN(C)CC2)c(C)c1 (stereo unspecified) | 8
COc1ccc(NC(=O)N(c2ccc(OC)cc2OC)C(C)c2nc3ccccc3c(=O)n2N2CCN(C)CC2)cc1 (stereo unspecified) | 16

Determine its reported MPC8: COc1ccc(N(C(=O)Nc2ccc(F)cc2)C(C)c2nc3ccc(OC)cc3c(=O)n2N2CCN(C)CC2)c(OC)c1 (stereo unspecified)
0.5

Determine its reported MPC8: CC(c1nc2ccccc2c(=O)n1N1CCN(C)CC1)N(C(=O)Nc1ccc(F)cc1)c1ccc(OCC2CC2)cc1OCC1CC1 (stereo unspecified)
4

Determine its reported MPC8: COc1ccc(N(C(=O)Nc2ccc(F)cc2)C(C)c2nc3cc(Cl)ccc3c(=O)n2N2CCN(C)CC2)c(OC)c1 (stereo unspecified)
0.12

Determine its reported MPC8: COc1ccc(N(C(=O)Nc2ccc(F)cc2)C(C)c2nc3ccc(Cl)cc3c(=O)n2N2CCN(C)CC2)c(OC)c1 (stereo unspecified)
0.25

Determine its reported MPC8: COc1ccc(N(C(=O)Nc2ccc(Cl)cc2)C(C)c2nc3ccccc3c(=O)n2N2CCN(C)CC2)c(OC)c1 (stereo unspecified)
2

Determine its reported MPC8: COc1ccc(N(C(=O)Nc2ccc(F)cc2)C(C)c2nc3cc(F)c(F)cc3c(=O)n2N2CCN(C)CC2)c(OC)c1 (stereo unspecified)
0.12
